Cited source: the supplement of paper PMC7125110

B1: glmS ribozyme (parent)
chain: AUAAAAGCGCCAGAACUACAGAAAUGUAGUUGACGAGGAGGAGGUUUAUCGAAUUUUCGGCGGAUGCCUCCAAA

Variants of: B1
measurementProtocol: self-cleavage kobs at 2500 uM GlcN6P; higher = faster cleavage; RNA array
testConditions: with glucosamine-6-phosphate
This sample holds only a part of the variants without activity.
Values of self-cleavage kobs at 2500 uM GlcN6P greater than or equal to 0.0002 s⁻¹ map to true (1); values below map to false (0).

> print(dat)
   mutationannotation  assignedlabel
1      C16U G40C U47G       true (1)

Is the recorded value of self-cleavage kobs at 2500 uM GlcN6P equal to or greater than 0.0002 s⁻¹ for this variant? A15U G44C A53U C58G C70U
false (0)

Is the recorded value of self-cleavage kobs at 2500 uM GlcN6P equal to or greater than 0.0002 s⁻¹ for this variant? A39C A53G
true (1)

Is the recorded value of self-cleavage kobs at 2500 uM GlcN6P equal to or greater than 0.0002 s⁻¹ for this variant? G44U G60C G62U
false (0)

Is the recorded value of self-cleavage kobs at 2500 uM GlcN6P equal to or greater than 0.0002 s⁻¹ for this variant? A39G A52U C61G A64C
false (0)

Is the recorded value of self-cleavage kobs at 2500 uM GlcN6P equal to or greater than 0.0002 s⁻¹ for this variant? C11G G13A G41A A52U A53C G63C C68G
false (0)

Is the recorded value of self-cleavage kobs at 2500 uM GlcN6P equal to or greater than 0.0002 s⁻¹ for this variant? G32C U65G C68G
false (0)

Is the recorded value of self-cleavage kobs at 2500 uM GlcN6P equal to or greater than 0.0002 s⁻¹ for this variant? A12G G35C G60A U65G C68G
true (1)

Is the recorded value of self-cleavage kobs at 2500 uM GlcN6P equal to or greater than 0.0002 s⁻¹ for this variant? A12U C16G U30C
true (1)

Is the recorded value of self-cleavage kobs at 2500 uM GlcN6P equal to or greater than 0.0002 s⁻¹ for this variant? G32C G35C U56C
false (0)

Is the recorded value of self-cleavage kobs at 2500 uM GlcN6P equal to or greater than 0.0002 s⁻¹ for this variant? G41C C71U
false (0)

Is the recorded value of self-cleavage kobs at 2500 uM GlcN6P equal to or greater than 0.0002 s⁻¹ for this variant? A14U A39C
true (1)

Is the recorded value of self-cleavage kobs at 2500 uM GlcN6P equal to or greater than 0.0002 s⁻¹ for this variant? C67A U69A
true (1)

Is the recorded value of self-cleavage kobs at 2500 uM GlcN6P equal to or greater than 0.0002 s⁻¹ for this variant? A36C U47C
false (0)

Is the recorded value of self-cleavage kobs at 2500 uM GlcN6P equal to or greater than 0.0002 s⁻¹ for this variant? G37C C50U U69G
false (0)

Is the recorded value of self-cleavage kobs at 2500 uM GlcN6P equal to or greater than 0.0002 s⁻¹ for this variant? A12C
true (1)
